Target: BCL-XL (Homo sapiens)
Construct: endogenous in cells; host or cells: MOLT-4
Sequence (Q07817 whole entry): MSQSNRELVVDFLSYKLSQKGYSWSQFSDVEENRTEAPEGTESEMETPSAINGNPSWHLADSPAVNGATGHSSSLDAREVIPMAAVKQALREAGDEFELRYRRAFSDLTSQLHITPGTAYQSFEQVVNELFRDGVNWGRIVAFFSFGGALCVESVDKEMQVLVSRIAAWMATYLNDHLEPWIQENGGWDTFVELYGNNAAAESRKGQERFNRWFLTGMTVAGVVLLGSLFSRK
Assay: Bcl-xL ELISA degradation in MOLT-4 cells, 6 h
Type: cell-based
Details: read-out: Bcl-xL ELISA in MOLT-4 degradation 6 h: Mean external-Abs DC50
Catalogue of DC50 values

Here's what some known entries look like.
[[record]]
structure_string = "C#Cc1ccc([C@H](C)NC(=O)[C@@H]2C[C@@H](O)CN2C(=O)[C@@H](NC(=O)CCCCCS(=O)(=O)NC(=O)c2nc(N3CCc4cccc(C(=O)Nc5nc6cccnc6s5)c4C3)ccc2-c2cnn(CC3CCCCC3)c2C)C(C)(C)C)cc1"
quantity_kind = "DC50"
assay_result = "< 10 nM"

[[record]]
structure_string = "C#Cc1ccc(CNC(=O)[C@@H]2C[C@@H](O)CN2C(=O)[C@H](NC(=O)CCCCCS(=O)(=O)NC(=O)c2nc(N3CCc4cccc(C(=O)Nc5nc6ccccc6s5)c4C3)ccc2-c2cnn(CC3CCCCC3)c2C)C(C)(C)CCO)cc1"
quantity_kind = "DC50"
assay_result = "100 to 500 nM"

[[record]]
structure_string = "Cc1ncsc1-c1ccc([C@H](C)NC(=O)[C@@H]2C[C@@H](O)CN2C(=O)[C@H](c2cc(OC3CC4(C3)CN(C(=O)c3nc(N5CCc6cccc(C(=O)Nc7nc8ccccc8s7)c6C5)ccc3-c3cnn(CC5CCCCC5)c3C)C4)no2)C(C)C)cc1"
quantity_kind = "DC50"
assay_result = "500 to 1000 nM"


Q. Given "Cc1ncsc1-c1ccc([C@H](C)NC(=O)[C@@H]2C[C@@H](O)CN2C(=O)[C@@H](c2cc(N3CC(N4CCC(NC(=O)c5nc(N6CCc7cccc(C(=O)Nc8nc9ccccc9s8)c7C6)ccc5-c5cnn(CC6CCCCC6)c5C)CC4)C3)no2)C(C)C)cc1" , state its recorded DC50.
A. 100 to 500 nM
